Assay: solvent given as SMILES
Conditions: in S=C=S
Reported solvation free energy, 298 K values for a set of compounds

Worked cases, answers included:
[[record]]
test_smiles = "FC(F)(F)C(F)(F)C(F)(F)C(F)(F)C(F)(F)C(F)(F)C(F)(F)F"
observed_result = "-0.45 kcal/mol"

[[record]]
test_smiles = "C1CCCC1"
observed_result = "-3.84 kcal/mol"

[[record]]
test_smiles = "CC(C)CC(C)C"
observed_result = "-4.19 kcal/mol"

[[record]]
test_smiles = "[2H]O[2H]"
observed_result = "-0.75 kcal/mol"

[[record]]
test_smiles = "CCCC(C)C"
observed_result = "-3.82 kcal/mol"


Query :: Entry under review: Cc1ccccc1 . Reported solvation free energy, 298 K?
Result :: -5.33 kcal/mol

Query :: What do you get for ClC(Cl)(Cl)Cl ?
Result :: -4.52 kcal/mol

Query :: What do you get for c1ccccc1 ?
Result :: -4.51 kcal/mol

Query :: What do you get for C1CCCCC1 ?
Result :: -4.49 kcal/mol

###

Assay: solvent given as SMILES
Conditions: in CCCCC(CC)COC(=O)c1ccccc1C(=O)OCC(CC)CCCC
Reported solvation free energy, 298 K values for a set of compounds
Number plus unit, in that order.

Worked cases, answers included:
[[record]]
test_smiles = "c1ccccc1"
observed_result = "-3.9 kcal/mol"

[[record]]
test_smiles = "C1CCCCC1"
observed_result = "-3.6 kcal/mol"

[[record]]
test_smiles = "Cc1ccccc1"
observed_result = "-4.55 kcal/mol"


Below: the item to evaluate.
Query :: Entry under review: C=CCCCCC . Reported solvation free energy, 298 K?
Result :: -3.78 kcal/mol

###

Reported solvation free energy, 298 K values for a set of compounds
Test: solvent given as SMILES
Settings: in O
# value in kcal/mol; strip the unit string

Worked cases, answers included:
[[record]]
compound = "CNCCc1ccc(O)cc1"
measured_metric = "solvation free energy, 298 K"
unit_annotation = "kcal/mol"
observed_result = -11.9

[[record]]
compound = "COC(C)C"
measured_metric = "solvation free energy, 298 K"
unit_annotation = "kcal/mol"
observed_result = -2.01

[[record]]
compound = "c1ccc2nc3ccccc3cc2c1"
measured_metric = "solvation free energy, 298 K"
unit_annotation = "kcal/mol"
observed_result = -6.75

[[record]]
compound = "CC(C)(C)Cl"
measured_metric = "solvation free energy, 298 K"
unit_annotation = "kcal/mol"
observed_result = 1.09

[[record]]
compound = "COCCN"
measured_metric = "solvation free energy, 298 K"
unit_annotation = "kcal/mol"
observed_result = -6.55

[[record]]
compound = "COCC(OC)(OC)OC"
measured_metric = "solvation free energy, 298 K"
unit_annotation = "kcal/mol"
observed_result = -5.73

[[record]]
compound = "FC(Cl)(Cl)C(F)(Cl)Cl"
measured_metric = "solvation free energy, 298 K"
unit_annotation = "kcal/mol"
observed_result = 0.87

[[record]]
compound = "CCCCNCc1ccc(C)cc1"
measured_metric = "solvation free energy, 298 K"
unit_annotation = "kcal/mol"
observed_result = -5.47


Query :: Entry under review: Clc1cc(-c2cc(Cl)c(Cl)c(Cl)c2Cl)cc(Cl)c1Cl . Reported solvation free energy, 298 K?
Result :: -3.17

Query :: What do you get for CCCCCCC(C)=O ?
Result :: -2.92

Query :: What do you get for CC(C)C(C)(C)C ?
Result :: 2.62

Query :: What do you get for COc1cc(NS(=O)(=O)c2ccc(N)cc2)nc(OC)n1 ?
Result :: -18.9

###

Experiment: solvent given as SMILES
Conditions: in CCCOC(C)=O
measured-metric: solvation free energy, 298 K (kcal/mol)
# value in kcal/mol; strip the unit string

Worked cases, answers included:
[[record]]
compound = "c1ccc2c(c1)Nc1ccccc1S2"
observed_result = -13.9

[[record]]
compound = "O=C1c2ccccc2C(=O)c2c(Cl)cccc21"
observed_result = -14.1

[[record]]
compound = "O=C(O)c1cccc(C(=O)O)c1"
observed_result = -12.5


Below: the item to evaluate.
Query :: Entry under review: CCC(C)(C)C(=O)OC1CC(C)C=C2C=CC(C)C(CCC3CC(O)CC(=O)O3)C21 (centres undefined) . Reported solvation free energy, 298 K?
Result :: -25

###

Experiment: solvent given as SMILES
Settings: in CC(C)CCCC(C)CCCC(C)CCCCC(C)CCCC(C)CCCC(C)C
Dear colleague, classification is by solvation free energy, 298 K, with ranges listed here: LOW = under -4 kcal/mol, MEDIUM = from -4 kcal/mol up to -3 kcal/mol, HIGH = -3 kcal/mol and over

[[record]]
test_smiles = "CCCC(C)C"
discrete_label = "MEDIUM"

[[record]]
test_smiles = "ClC(Cl)(Cl)Cl"
discrete_label = "MEDIUM"

[[record]]
test_smiles = "CC(C)CO"
discrete_label = "MEDIUM"

[[record]]
test_smiles = "Cc1ccccc1"
discrete_label = "LOW"

[[record]]
test_smiles = "COC(C)=O"
discrete_label = "HIGH"


Query :: Hey, which category is CCCCOC(C)=O in, do you know?
Result :: LOW

Query :: What do you get for CCCCCC(C)=O ?
Result :: LOW

Query :: What do you get for C1CCCCC1 ?
Result :: MEDIUM

Query :: What do you get for CCC=O ?
Result :: HIGH

Query :: What do you get for CCC(=O)CC ?
Result :: MEDIUM

Query :: What do you get for c1ccccc1 ?
Result :: MEDIUM

###

Assay: solvent given as SMILES
Details: in O
measured-metric: solvation free energy, 298 K (kcal/mol)
# value in kcal/mol; strip the unit string

[[record]]
compound = "CCCCCCCCCCCC(=O)OC"
observed_result = -2.91


Query :: Entry under review: OCC1OC(O)C(O)C(O)C1O (configuration not stated) . Reported solvation free energy, 298 K?
Result :: -25.5

Query :: What do you get for C=CC1(C)CCC(=C(C)C)CC1C(=C)C (configuration not stated) ?
Result :: -0.35

Query :: What do you get for O=Nc1ccc2ccccc2c1O ?
Result :: -8.79

Query :: What do you get for CC1CCC(C(C)C)C(O)C1 (configuration not stated) ?
Result :: -3.2

Query :: What do you get for C#CC ?
Result :: -0.48

Query :: What do you get for CCNc1nc(NC(C)CC)nc(OC)n1 (configuration not stated) ?
Result :: -9.89

Query :: What do you get for CCCCCCCOC(=O)c1ccccc1C(=O)OCCCCC ?
Result :: -6.78

Query :: What do you get for CCCCC(=O)CCCC ?
Result :: -2.64

Query :: What do you get for C=CC(C)(O)CCC=C(C)C (configuration not stated) ?
Result :: -4.17

Query :: What do you get for CCCC1CCCC1 ?
Result :: 2.13

Query :: What do you get for Cc1cc(C)c2ccccc2c1 ?
Result :: -2.47

Query :: What do you get for CCCC#N ?
Result :: -3.63

###

Test: solvent given as SMILES
Details: in CCCCCCO
measured-metric: solvation free energy, 298 K (kJ/mol)
# value in kJ/mol; strip the unit string

Worked cases, answers included:
[[record]]
compound = "c1ccc2c(c1)Nc1ccccc1S2"
observed_result = -54.8

[[record]]
compound = "O=O"
observed_result = 4.1

[[record]]
compound = "CCCCCCCCCCCCCCCCCCO"
observed_result = -62.4

[[record]]
compound = "O=C(O)c1cc([N+](=O)[O-])cc([N+](=O)[O-])c1"
observed_result = -57.6


Below: the item to evaluate.
Query :: Entry under review: CCC(C)(C)C(=O)OC1CC(C)C=C2C=CC(C)C(CCC3CC(O)CC(=O)O3)C21 (stereo not given) . Reported solvation free energy, 298 K?
Result :: -105

###

Assay: solvent given as SMILES
Conditions: in CCOCCOCCOCC
solvation free energy, 298 K strictly less than -4 kcal/mol = Met. Otherwise Not met.

Some solved cases for reference:
[[record]]
test_smiles = "CCCC(C)C"
discrete_label = "Not met"

[[record]]
test_smiles = "O=C=O"
discrete_label = "Not met"

[[record]]
test_smiles = "C1CCCCC1"
discrete_label = "Not met"

[[record]]
test_smiles = "CC(C)CC(C)C"
discrete_label = "Not met"


Please turn your attention to the following entry.
Query :: Hello, I'm reviewing records and need to know if solvation free energy, 298 K of Cc1ccccc1 is below -4 kcal/mol. Could you check?
Result :: Met

###

Assay: solvent given as SMILES
Details: in Cc1ccccc1
Reported solvation free energy, 298 K values for a set of compounds
Number plus unit, in that order.

Worked cases, answers included:
[[record]]
test_smiles = "C1CCCCC1"
measured_metric = "solvation free energy, 298 K"
observed_result = "-4.2 kcal/mol"

[[record]]
test_smiles = "CC(C)CC(C)C"
measured_metric = "solvation free energy, 298 K"
observed_result = "-4.07 kcal/mol"

[[record]]
test_smiles = "COc1cc(C(C)=O)cc(-c2cc(C(C)=O)cc(OC)c2O)c1O"
measured_metric = "solvation free energy, 298 K"
observed_result = "-20.8 kcal/mol"

[[record]]
test_smiles = "CCCC(C)C"
measured_metric = "solvation free energy, 298 K"
observed_result = "-3.65 kcal/mol"

[[record]]
test_smiles = "O=C=O"
measured_metric = "solvation free energy, 298 K"
observed_result = "-0.48 kcal/mol"


Query :: Entry under review: O=[N+]([O-])c1cc(Cl)ccc1Cl . Reported solvation free energy, 298 K?
Result :: -9.28 kcal/mol
